test-target: Potassium voltage-gated channel subfamily KQT member 4 (Homo sapiens)
experiment-summary: Activity at human KCNQ4 expressed in CHOK1 cells assessed as ratio of amplitude of outward current in presence of test compound to amplitude of outward current in absence of test compound at 10 uM at -10 mV by whole cell patch clamp assay
Assay type: cell-based
quantity-name: Ratio
The reply should be a number, written without any unit.

Look at this compound and give its reported Ratio. C#CCN(Cc1ccc(F)cc1)c1ccc(NC(=O)OCC)c(NC(=O)OCCC)c1
3.95

Look at this compound and give its reported Ratio. CCOC(=O)Nc1ccc(N(CC=C(C)C)Cc2ccc(F)cc2)cc1NC(=O)OCC
3.63

Look at this compound and give its reported Ratio. C#CCN(Cc1ccc(F)cc1)c1ccc(NC(=O)OCC)c(NC(=O)OCC=C)c1
3.68

Look at this compound and give its reported Ratio. C#CCN(Cc1ccc(F)cc1)c1ccc(NC(=O)OCC)c(NC(=O)OC)c1
2.56

Look at this compound and give its reported Ratio. C#CCN(Cc1ccc(F)cc1)c1ccc(NC(=O)OCC)c(NC(=O)OC(C)C)c1
5.01

----------
Task for the reader: assign each of the following compounds its reported Ratio.
test-target: Potassium voltage-gated channel subfamily KQT member 4 (Homo sapiens) (UniProt P56696)
Sequence (P56696 whole entry): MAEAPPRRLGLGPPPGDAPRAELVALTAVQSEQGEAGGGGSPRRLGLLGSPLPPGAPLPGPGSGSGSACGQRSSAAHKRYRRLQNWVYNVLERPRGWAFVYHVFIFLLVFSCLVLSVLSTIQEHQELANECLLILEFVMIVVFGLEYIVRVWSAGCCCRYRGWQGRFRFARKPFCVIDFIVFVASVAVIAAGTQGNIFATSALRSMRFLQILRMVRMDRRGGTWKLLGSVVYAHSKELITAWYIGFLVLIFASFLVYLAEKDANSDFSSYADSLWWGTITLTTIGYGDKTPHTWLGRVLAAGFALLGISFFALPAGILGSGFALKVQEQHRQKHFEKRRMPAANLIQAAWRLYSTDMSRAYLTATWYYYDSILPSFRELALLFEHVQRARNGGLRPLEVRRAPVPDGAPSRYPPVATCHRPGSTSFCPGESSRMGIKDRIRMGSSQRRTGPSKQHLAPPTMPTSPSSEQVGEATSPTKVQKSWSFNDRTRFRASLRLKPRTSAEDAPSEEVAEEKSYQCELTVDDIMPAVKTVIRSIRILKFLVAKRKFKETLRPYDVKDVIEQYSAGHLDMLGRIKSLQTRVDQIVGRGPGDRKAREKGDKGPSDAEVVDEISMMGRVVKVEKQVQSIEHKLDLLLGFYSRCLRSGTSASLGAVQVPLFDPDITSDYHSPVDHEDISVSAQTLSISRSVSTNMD
experiment-summary: Activity at human KCNQ4 expressed in CHOK1 cells assessed as ratio of amplitude of outward current in presence of test compound to amplitude of outward current in absence of test compound at 10 uM at -10 mV by whole cell patch clamp assay
Format: cell-based
The reply should be a number, written without any unit.

Return Ratio measured with Potassium voltage-gated channel subfamily KQT member 4 (Homo sapiens) (UniProt P56696) given this compound: C/C=C/CN(Cc1ccc(F)cc1)c1ccc(NC(=O)OCC)c(NC(=O)OCC)c1
1.85

Return Ratio measured with Potassium voltage-gated channel subfamily KQT member 4 (Homo sapiens) (UniProt P56696) given this compound: C#CCN(Cc1ccc(F)cc1)c1ccc(NC(=O)OCC=C)c(NC(=O)OCC=C)c1
2.21

Return Ratio measured with Potassium voltage-gated channel subfamily KQT member 4 (Homo sapiens) (UniProt P56696) given this compound: C#CCN(Cc1ccc(F)cc1)c1ccc(NC(=O)OC2CCCC2)c(NC(=O)OC2CCCC2)c1
0.88

Return Ratio measured with Potassium voltage-gated channel subfamily KQT member 4 (Homo sapiens) (UniProt P56696) given this compound: C#CCN(Cc1ccc(F)cc1)c1ccc(NC(=O)OC)c(NC(=O)OC)c1
4.77

Return Ratio measured with Potassium voltage-gated channel subfamily KQT member 4 (Homo sapiens) (UniProt P56696) given this compound: C#CCN(Cc1ccc(F)cc1)c1ccc(NC(=O)OCCC)c(NC(=O)OCCC)c1
2.58

Return Ratio measured with Potassium voltage-gated channel subfamily KQT member 4 (Homo sapiens) (UniProt P56696) given this compound: C#CCN(Cc1ccc(F)cc1)c1ccc(NC(=O)OCC)c(NC(=O)OCC(C)C)c1
5.19

Return Ratio measured with Potassium voltage-gated channel subfamily KQT member 4 (Homo sapiens) (UniProt P56696) given this compound: C#CCN(Cc1ccc(F)cc1)c1ccc(NC(=O)OCC(C)C)c(NC(=O)OCC(C)C)c1
1.52

Return Ratio measured with Potassium voltage-gated channel subfamily KQT member 4 (Homo sapiens) (UniProt P56696) given this compound: C#CCN(Cc1ccc(F)cc1)c1ccc(NC(=O)OCC)c(NC(=O)OCc2ccccc2)c1
1.27

Return Ratio measured with Potassium voltage-gated channel subfamily KQT member 4 (Homo sapiens) (UniProt P56696) given this compound: C#CCN(Cc1ccc(F)cc1)c1ccc(NC(=O)OCC)c(NC(=O)OC(C)(C)C)c1
6.37

Return Ratio measured with Potassium voltage-gated channel subfamily KQT member 4 (Homo sapiens) (UniProt P56696) given this compound: C#CCN(Cc1ccc(F)cc1)c1ccc(NC(=O)OC(C)C)c(NC(=O)OC(C)C)c1
1.33

Return Ratio measured with Potassium voltage-gated channel subfamily KQT member 4 (Homo sapiens) (UniProt P56696) given this compound: C#CCN(Cc1ccc(F)cc1)c1ccc(NC(=O)OCCCC)c(NC(=O)OCCCC)c1
2.75

Return Ratio measured with Potassium voltage-gated channel subfamily KQT member 4 (Homo sapiens) (UniProt P56696) given this compound: C#CCN(Cc1ccc(F)cc1)c1ccc(NC(=O)OC2CCC2)c(NC(=O)OC2CCC2)c1
1.21

Return Ratio measured with Potassium voltage-gated channel subfamily KQT member 4 (Homo sapiens) (UniProt P56696) given this compound: C#CCN(Cc1ccc(F)cc1)c1ccc(NC(=O)OC(C)(C)C)c(NC(=O)OCC)c1
7.71

Return Ratio measured with Potassium voltage-gated channel subfamily KQT member 4 (Homo sapiens) (UniProt P56696) given this compound: C#CCN(Cc1ccc(F)cc1)c1ccc(NC(=O)OC(C)(C)C)c(NC(=O)OC(C)(C)C)c1
3.05

Return Ratio measured with Potassium voltage-gated channel subfamily KQT member 4 (Homo sapiens) (UniProt P56696) given this compound: C#CCN(Cc1ccc(F)cc1)c1ccc(NC(=O)OCC)c(NC(=O)OCC)c1
5.68

Return Ratio measured with Potassium voltage-gated channel subfamily KQT member 4 (Homo sapiens) (UniProt P56696) given this compound: C#CCN(Cc1ccc(F)cc1)c1ccc(NC(=O)OCC)c(NC(=O)OCCCC)c1
4.16

Return Ratio measured with Potassium voltage-gated channel subfamily KQT member 4 (Homo sapiens) (UniProt P56696) given this compound: C/C=C(\C)CN(Cc1ccc(F)cc1)c1ccc(NC(=O)OCC)c(NC(=O)OCC)c1
2.36

Return Ratio measured with Potassium voltage-gated channel subfamily KQT member 4 (Homo sapiens) (UniProt P56696) given this compound: C#CCN(Cc1ccc(F)cc1)c1ccc(NC(=O)OC2CC2)c(NC(=O)OC2CC2)c1
1.51

Return Ratio measured with Potassium voltage-gated channel subfamily KQT member 4 (Homo sapiens) (UniProt P56696) given this compound: CCOC(=O)Nc1ccc(N(CC#Cc2ccccc2)Cc2ccc(F)cc2)cc1NC(=O)OCC
1.54

Return Ratio measured with Potassium voltage-gated channel subfamily KQT member 4 (Homo sapiens) (UniProt P56696) given this compound: C#CCN(Cc1ccc(F)cc1)c1ccc(NC(=O)Oc2ccccc2)c(NC(=O)Oc2ccccc2)c1
1.22

Return Ratio measured with Potassium voltage-gated channel subfamily KQT member 4 (Homo sapiens) (UniProt P56696) given this compound: CCOC(=O)Nc1ccc(N(CC2=CCCCC2)Cc2ccc(F)cc2)cc1NC(=O)OCC
1.49

Return Ratio measured with Potassium voltage-gated channel subfamily KQT member 4 (Homo sapiens) (UniProt P56696) given this compound: C#CCN(Cc1ccc(F)cc1)c1ccc(NC(=O)OCc2ccccc2)c(NC(=O)OCc2ccccc2)c1
3.02
